Provide the reported TACE IC50 of each item.
Biological target: TACE
Test: cell-based or functional assay
Number in µg/mL, nothing else.

Challenge: State its TACE IC50: cyclo(GACICRRRFCLCRR) (disulfide (positions not given here); not fully specified (bridges)) [Peptide 9]
Response given: 0.515

Challenge: State its TACE IC50: cyclo(GVCLCRRGVCLCRR) (disulfide (positions not given here); not fully specified (bridges)) [Peptide 3]
Response given: 1.15

Challenge: State its TACE IC50: cyclo(GVCACRRRFCACRR) (disulfide (positions not given here); not fully specified (bridges)) [Peptide 10]
Response given: 2.74

Challenge: State its TACE IC50: cyclo(GVCICRRGVCICRR) (disulfide (positions not given here); not fully specified (bridges)) [Peptide 4]
Response given: 0.546

Challenge: State its TACE IC50: cyclo(GVCSCRRRFCLCRR) (disulfide (positions not given here); not fully specified (bridges)) [Peptide 8]
Response given: 2.61

Challenge: State its TACE IC50: cyclo(GVCSCRRRFCICRR) (disulfide (positions not given here); not fully specified (bridges)) [Peptide 6]
Response given: 3.19

Challenge: State its TACE IC50: cyclo(GVCACARRFCACRR) (disulfide (positions not given here); not fully specified (bridges)) [Peptide 5]
Response given: 1.83
